Target: Mannose-6-phosphate isomerase (Homo sapiens) (UniProt P34949)
Sequence (P34949 whole entry, looked up): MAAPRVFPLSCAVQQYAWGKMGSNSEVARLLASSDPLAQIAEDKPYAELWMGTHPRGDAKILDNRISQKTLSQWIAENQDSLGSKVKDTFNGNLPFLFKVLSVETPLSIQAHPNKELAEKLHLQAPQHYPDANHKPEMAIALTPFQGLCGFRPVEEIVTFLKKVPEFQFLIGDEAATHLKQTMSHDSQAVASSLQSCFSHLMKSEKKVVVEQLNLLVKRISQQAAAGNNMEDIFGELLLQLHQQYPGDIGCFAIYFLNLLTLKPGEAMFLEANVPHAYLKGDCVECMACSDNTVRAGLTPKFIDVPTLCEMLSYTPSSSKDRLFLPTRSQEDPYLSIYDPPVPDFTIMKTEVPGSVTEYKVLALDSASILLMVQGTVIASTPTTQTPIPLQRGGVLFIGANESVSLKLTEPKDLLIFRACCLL
Experiment: inhibitors of human PMI, primary screen, biochemical, fluorescence intensity, coupled assay (AID 1209)
Settings: purified PMI enzyme, at 20 µM
Out of some 190,000 compounds screened, about 810 (0.43%) were called active. No stated cut-off is given here; in the data, active means inhibition above about 50%; inactive means the rest. Only a selection was taken, and actives are over-represented in it overall.
In this exercise, the only acceptable responses are yes = active, no = inactive

Consider the following illustrative entries.
1. COc1cc(C(=O)ON=C2C=C(C)C(=O)C(C)=C2)cc(OC)c1OC; no
2. Cc1nn(CC(=O)Nc2nccs2)c(C)c1[N+](=O)[O-]; no
3. CCc1c(C)sc(NC(=O)Cn2nc(C)c([N+](=O)[O-])c2C)c1C(N)=O; yes
4. COc1cc(C(=O)O/N=C2/C=C(C)C(=O)C=C2C)cc(OC)c1OC; no
5. Oc1ccc2ccccc2c1C=NC1CCCCC1; yes
6. Cn1c(N)c(C(=O)Nc2ccc3ccccc3c2)sc1=S; yes
7. Oc1ccc2ccccc2c1/C=N/n1cnnc1; no
8. Nc1ccc(-n2cnc3cc([N+](=O)[O-])ccc32)cc1; yes

Prompt: Field: outcome | Entry: OCC(CO)(CO)N=Cc1c(O)ccc2ccccc12
Response: no

Prompt: In this assay, the call recorded for COc1ccccc1NC(=O)c1ccc(NC(=O)COC(=O)C2CCCCC2)cc1 was what?
Response: no

Prompt: For Oc1ccc2ccccc2c1C=NC12CN3CCN(CN(C3)C1)C2 , which call appears in the assay record?
Response: yes

Prompt: Per the assay record, what outcome was assigned to COc1cc(C(=O)O/N=C2/C=CC(=O)C(C)=C2C)cc(OC)c1OC ?
Response: no

Prompt: Returns: the outcome recorded for Cc1oc2c(C)c(O)ccc2c(=O)c1-c1cnn(-c2ccccc2)c1 in this assay.
Response: no

Prompt: Please state the recorded outcome for this compound: CCOC(=O)Cn1nc(C)c([N+](=O)[O-])c1C
Response: no
